Just for reference, paper doi:10.1101/2025.11.04.686469 is where these values come from.

- Tested on: THP-1 macrophages
- ASSAY OVERVIEW: Effect of compounds on host cell viability (MTT)
- Format: cell-based
- MEASUREMENT CONTEXT: read-out: 24h LC50; THP1 macrophages, 24-hour incubation, MTT assay (Supplemental Table 2)

MOLECULE	MEASURE UNIT	COMPARATIVE SIGN	CC50
CCc1cc(C(F)(F)F)nn1-c1ccc(Br)cc1	µM	>	50
c1cn(-c2ccc3nonc3c2)cn1	µM	>	50
COc1ccc(-n2nc(C(F)(F)F)cc2-c2ccc(-c3ccc(C(F)(F)F)cc3)cc2)cc1	µM	=	5.8
CC(C)(C)OC(=O)N1CCN(c2ccc(-n3nc(C(F)(F)F)cc3-c3ccc(Br)cc3)cc2)CC1	µM	>	50
Cc1ccc(-c2cc(C(F)(F)F)nn2-c2ccc(Br)cc2)cc1	µM	>	50
FC(F)(F)c1ccc(-c2ccc(-c3cc(C(F)(F)F)nn3-c3ccc(NC4CCN(Cc5cccc(Cl)c5Cl)C4)cc3)cc2)cc1 (centres unmarked)	µM	>	50
COC(=O)c1ccc(-n2cc(C(F)(F)F)nc2-c2ccc(-c3ccc(C(F)(F)F)cc3)cc2)c(F)c1	µM	>	50
FC(F)(F)c1ccc(-c2nc(C(F)(F)F)cn2CC2CCNC2)cc1 (centres unmarked)	µM	>	50
N#Cc1ccc(-n2cc(C(F)(F)F)nc2-c2ccc(-c3ccccc3)cc2)cc1	µM	>	50
CC(C)(C)OC(=O)N1CCC(Oc2ccc(-n3nc(C(F)(F)F)cc3C3CCCCC3)cc2)CC1	µM	>	50
FC(F)(F)c1cc(-c2ccc(-c3ccc(S(F)(F)(F)(F)F)cc3)cc2)n(-c2ccc(N3CCNCC3)cc2)n1	µM	=	10
FC(F)(F)c1cc(C2CCCCC2)n(-c2ccc(OC3CCNC3)cc2)n1 (centres unmarked)	µM	=	12.3
O=C(O)c1ccc(-n2cc(C(F)(F)F)nc2-c2ccc(-c3ccc(C(F)(F)F)cc3)cc2)c(F)c1	µM	>	50
CC(C)c1cc(C(F)(F)F)nn1-c1ccc(Br)cc1	µM	>	50
NC1CCN(c2ccc(-n3nc(C(F)(F)F)cc3-c3ccncc3)cc2)C1 (centres unmarked)	µM	>	50
NC1CCN(c2ccc(-n3nc(C(F)(F)F)c4ccc(-c5ccc(C(F)(F)F)cc5)cc43)cc2)C1 (centres unmarked)	µM	=	7.7
NCCCN1CCC(Oc2ccc(-n3nc(C(F)(F)F)cc3C3CCCCC3)cc2)CC1	µM	=	5.5
NS(=O)(=O)c1ccc(-n2nc(C(F)(F)F)cc2-c2ccc(-c3ccc(C(F)(F)F)cc3)cc2)cc1	µM	=	9
FC(F)(F)c1ccc(-c2ccc(-c3cc(C(F)(F)F)nn3-c3ccc(NC4CNC4)cc3)cc2)cc1	µM	=	11
Fc1cccc(CN2CCC(Nc3ccc(-n4nc(C(F)(F)F)cc4C4CCCCC4)cc3)C2)c1 (centres unmarked)	µM	=	13.1
